# Run description: small-molecule microarray binders of probe aNog, primary screen, biochemical, biotinylated probe, 635/667 nm fluorescence (AID 1115);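 note: probe is biotinylated aNog protein used at 0.15 µg/mL for 1 h at 4 C; z-score combines 667 nm fluorescence of each spot with its signal to noise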
# Test context: higher = more signal
Measurement type: composite z-score
When you answer, write just the number.

Qu. Hello, please tell me recorded composite z-score for this one: `CN1C(=O)[C@]2(CCS(=O)(=O)c3ccccc3)N=C(c3ccc(OCCCO)cc3)O[C@@H]2c2ccccc21`
Ans. -0.122

Qu. Hello, please tell me recorded composite z-score for this one: `COCCOC(=O)N1C(=O)[C@@]2(c3cc(C#CC4=CCCCC4)ccc31)[C@H](c1ccccc1OCCO)N1[C@H](c3ccccc3)[C@H](c3ccccc3)OC(=O)[C@H]1[C@@H]2C(N)=O`
Ans. -0.512

Qu. Hello, please tell me recorded composite z-score for this one: `COC(=O)[C@@]1(Cc2ccc(F)cc2)[C@H]2c3cc(C(=O)N(C)C)n(CCn4cc([N+](=O)[O-])nc4C)c3C[C@H]2CN1C(=O)c1ccccc1`
Ans. 1.08

Qu. Hello, please tell me recorded composite z-score for this one: `CN(C)CCCC[C@@H]1NC(=O)[C@H]2C[C@@H](C(=O)NCc3ccc(F)cc3)[C@@H](c3ccc(O)cc3)N2C1=O`
Ans. -0.273

Qu. Hello, please tell me recorded composite z-score for this one: `CCCC=C(CCC)[C@@H](NS(=O)(=O)c1ccc(Cl)cc1)c1ccccc1`
Ans. 1.07

Qu. Hello, please tell me recorded composite z-score for this one: `Cc1ccc(S[C@]2(C(=O)NCCCN(C)C)CC(=O)N(Cc3ccccc3Cl)[C@@H]2c2ccc(CO)cc2I)cc1`
Ans. 0.692

Qu. Hello, please tell me recorded composite z-score for this one: `COC(=O)[C@@]1(Cc2ccccc2)[C@@H]2[C@@H](CC(=O)[C@H]2CC(=O)C(=O)N(C)C)CN1C(=O)c1ccccc1`
Ans. 0.859

====

Please respond with reported z-score for every item in the list.
# Run description: yeast growth modulation, basal conditions, primary screen, YJM789 clinical isolate, OD600, 24 h (AID 1089);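 note: growth of clinical yeast isolate S. cerevisiae YJM 789 seeded 1000 cells per well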
# Test context: S. cerevisiae YJM789 growth, higher = more signal, called active from +8 up or from −8 down
When you answer, write just the number.

Qu. Hello, please tell me recorded z-score for this one: `C#CCN(C/C=C/c1ccccc1)[C@H](CO[Si](C)(C)C(C)(C)C)c1ccccc1`
Ans. 0.253

Qu. Hello, please tell me recorded z-score for this one: `Cc1ccc(F)cc1S(=O)(=O)N[C@@H]1CCN(Cc2ccc3c(c2)OCO3)C1`
Ans. 0.158

Qu. Hello, please tell me recorded z-score for this one: `COC(=O)[C@@]1(Cc2ccccc2)[C@@H]2[C@@H](CC(=O)[C@H]2CC(=O)C(=O)N(C)C)CN1C(=O)c1ccccc1`
Ans. 1.02

Qu. Hello, please tell me recorded z-score for this one: `COCCCNC(=O)[C@@H]1c2ccccc2C(=O)N(C2CCCCC2)[C@H]1c1ccc(CO)cc1`
Ans. -0.0916

====

# Test system: XIP peptide (Xip251-270)
# Run description: small-molecule binders of XIP peptide, primary screen, biochemical, small-molecule microarray, fluorescence 635/667 nm, 0.5 µg/mL protein (AID 1183)
# Test context: small-molecule microarray binding, fluorescence 635 nm; higher = more signal
Measurement type: composite z-score
When you answer, write just the number.

Qu. Provide composite z-score, recorded with XIP peptide (Xip251-270), of `C=C(COC)/C(=C/C[C@H](OC(=O)c1ccncc1)c1ccc(OCCO)cc1)c1cc(C(=O)OC)ccc1OC`
Ans. 0.667

Qu. Provide composite z-score, recorded with XIP peptide (Xip251-270), of COc1cc(OC)c(C(O)C2C=CC3C(=O)N(c4ccccc4)C(=O)C3N2Nc2ccccc2F)cc1Br (stereo not drawn)
Ans. 0.758

Qu. Provide composite z-score, recorded with XIP peptide (Xip251-270), of `CCOC(=O)C1=CC[C@@H](c2ccccc2)N(S(=O)(=O)C[Si](C)(C)C)[C@H]1c1ccccc1`
Ans. 0.704

Qu. Provide composite z-score, recorded with XIP peptide (Xip251-270), of C=CCC(OC(C)=O)[C@@H]1[C@@H](N(Cc2cc3ccccc3o2)C(=O)c2ccc(-c3ccccc3)cc2)c2cc(OCCCO)ccc2N1C(=O)c1ccc2ccccc2n1 (stereo partly drawn)
Ans. -0.317

Qu. Provide composite z-score, recorded with XIP peptide (Xip251-270), of `C=C(COC)C(=O)CC[C@@H](OC(C)=O)c1ccc(OCCO)cc1`
Ans. 0.779

Qu. Provide composite z-score, recorded with XIP peptide (Xip251-270), of `O=C1O[C@@H](c2ccccc2)[C@@H](c2ccccc2)N2[C@@H](c3ccc(O)cc3)[C@]3(C(=O)Nc4ccc(C#CC5=CCCCC5)cc43)[C@@H](C(=O)N3CCCCCCC3)[C@H]12`
Ans. 0.816

Qu. Provide composite z-score, recorded with XIP peptide (Xip251-270), of `Cc1ccc(S[C@]2(C(=O)NCCCN(C)C)CC(=O)N(Cc3ccccc3Cl)[C@@H]2c2ccc(CO)cc2I)cc1`
Ans. 0.856

Qu. Provide composite z-score, recorded with XIP peptide (Xip251-270), of `[N-]=[N+]=NCc1ccccc1[C@@H]1OC(c2ccc(OCCCO)cc2)=N[C@]1(Cc1ccccc1)C(=O)NCc1ccccc1`
Ans. 0.573

====

# Run description: basal HepG2 mitochondrial membrane potential changes, profiling panel, cell-based, JC-1 fluorescence, 24 h, 100 nL compound (AID 1167)
# Test context: higher = more signal
Please respond with reported z-score for every item in the list.

Qu. Hello, please tell me recorded z-score for this one: `Cc1c(-c2ccc(-c3ccc(Cl)c(Cl)c3)o2)nc(-c2ccccc2)c2c1CO[Si]2(C(C)C)C(C)C`
Ans. -1.38

Qu. Hello, please tell me recorded z-score for this one: `CC(=O)NCCCC[C@@H]1NC(=O)[C@H]2C[C@@H](C(=O)NCCCCCC[N+](C)(C)C)[C@@H](c3ccc(O)cc3)N2C1=O`
Ans. -0.896

Qu. Hello, please tell me recorded z-score for this one: `C=CCOC(=O)[C@H]1[C@@H]2C(=O)O[C@@H](c3ccccc3)[C@@H](c3ccccc3)N2[C@@H](c2ccc(OCCOC(=O)[C@@H]3C[C@@H]4C(=O)N[C@@H](Cc5ccccc5)C(=O)N4[C@@H]3c3ccc(O)cc3)cc2)[C@]12C(=O)Nc1ccccc12`
Ans. -1.37

Qu. Hello, please tell me recorded z-score for this one: O=C1C2C=CC(C(O)c3ccc([N+](=O)[O-])cc3)N(Nc3ccccc3)C2C(=O)N1c1ccccc1 (stereo unspecified)
Ans. -2.59

Qu. Hello, please tell me recorded z-score for this one: `O=C1O[C@H](c2ccccc2)[C@H](c2ccccc2)N2[C@H]1[C@@H](C(=O)N1CCN(c3ncccn3)CC1)[C@]1(C(=O)Nc3ccccc31)[C@H]2c1ccc(O)cc1`
Ans. -1.26

Qu. Hello, please tell me recorded z-score for this one: CC(C)C[C@H]1NC(=O)[C@@H](C)NC(=O)[C@@]23C(=O)N[C@@H](Cc4ccccc4)C2[C@H](C)[C@@]2(C)O[C@H]2C3/C=C/C/C=C\CNC1=O (stereo partly specified)
Ans. -0.553

Qu. Hello, please tell me recorded z-score for this one: `O=C1O[C@@H](c2ccccc2)[C@@H](c2ccccc2)N2[C@@H](c3ccc(OCCO)cc3)[C@]3(C(=O)Nc4ccc(C#CCCO)cc43)[C@@H](C(=O)Nc3nc4ccccc4s3)[C@H]12`
Ans. -3.09

Qu. Hello, please tell me recorded z-score for this one: `[N-]=[N+]=NCc1ccccc1C[C@]1(C(=O)NCc2ccccc2)N=C(c2ccc(OCCCO)cc2)O[C@H]1c1ccccc1CN=[N+]=[N-]`
Ans. 0.247

Qu. Hello, please tell me recorded z-score for this one: `CC(C)[Si](C#CCCCC#N)(O[C@H](c1ccccc1)c1cn([C@H](C)c2ccccc2)nn1)C(C)C`
Ans. 6.54

Qu. Hello, please tell me recorded z-score for this one: `C=CC[C@@]12N=C(c3ccc(OCCCO)cc3)O[C@@H]1c1ccccc1N(Cc1ccccc1)C2=O`
Ans. 0.394

Qu. Hello, please tell me recorded z-score for this one: `CCOC(=O)C1=CC[C@@H](c2ccccc2Cl)N(S(=O)(=O)c2ccc(C)cc2)[C@H]1c1cccc(OC)c1`
Ans. 0.405

Qu. Hello, please tell me recorded z-score for this one: `[N-]=[N+]=NCc1ccccc1[C@H]1OC(c2ccc(OCCCO)cc2)=N[C@@]1(Cc1ccccc1)C(=O)N1CCOCC1`
Ans. 0.213

Qu. Hello, please tell me recorded z-score for this one: `CC(C)C[C@@H]1NC(=O)[C@H]2C[C@@H](C(=O)NCCCCCCNC(=O)CS)[C@@H](c3ccc(O)cc3)N2C1=O`
Ans. -1.74

Qu. Hello, please tell me recorded z-score for this one: `CCCCC=C[C@@H](NC(=O)c1ccc(C(F)(F)F)cc1)c1ccccc1`
Ans. -1.65

Qu. Hello, please tell me recorded z-score for this one: `COc1ccc(CCNC(=O)[C@@H]2c3ccccc3C(=O)N(CC34CC5CC(CC(C5)C3)C4)[C@H]2c2ccc(CO)cc2)cc1`
Ans. 1.47

Qu. Hello, please tell me recorded z-score for this one: C=CCC(OC(C)=O)[C@@H]1[C@@H](N(Cc2cc3ccccc3o2)C(=O)c2ccc(-c3ccccc3)cc2)c2cc(OCCCO)ccc2N1C(=O)c1ccc2ccccc2n1 (stereo partly specified)
Ans. 2.66

Qu. Hello, please tell me recorded z-score for this one: COc1cc2c(cc1O)C(C1CC1)N(Cc1ccc([N+](=O)[O-])o1)CC2 (stereo unspecified)
Ans. -1.57

Qu. Hello, please tell me recorded z-score for this one: C=CCC(OC(C)=O)[C@@H]1[C@@H](N(Cc2cc3ccccc3o2)C(=O)Cc2ccc(OC)cc2)c2cc(OCCCO)ccc2N1C(=O)Cc1ccc2ccccc2c1 (stereo partly specified)
Ans. 2.27

Qu. Hello, please tell me recorded z-score for this one: C=CCC(OC(C)=O)[C@@H]1[C@@H](N(Cc2ccc(-c3ccccc3)cc2)C(=O)c2ccc(-c3ccccc3)cc2)c2cc(OCCCO)ccc2N1C(=O)c1ccc2ccccc2n1 (stereo partly specified)
Ans. 2.22

Qu. Hello, please tell me recorded z-score for this one: `COc1ccc([Si](C)(C)[C@@H]2[C@@H](CCO)O[C@]3(C(=O)N(Cc4ccccc4)c4ccc(N5C(=O)c6ccccc6Oc6ccccc65)cc43)[C@H]2C)cc1`
Ans. -0.871

Qu. Hello, please tell me recorded z-score for this one: `CCCC=C(CCC)[C@@H](NS(=O)(=O)c1ccc(Cl)cc1)c1ccccc1`
Ans. -3.69

Qu. Hello, please tell me recorded z-score for this one: `COCCn1c(C(=O)N2CCCC2)cc2c1C[C@H]1CN(C(=O)c3ccccc3)[C@@](Cc3ccccc3)(C(=O)OC)[C@@H]21`
Ans. 0.678

Qu. Hello, please tell me recorded z-score for this one: `CO[C@H]1O[C@H](CO)[C@@H](OC(=O)Nc2ccccc2)[C@@H]2OC(=O)[C@H](Cc3ccccc3)C/C=C/C[C@@H](Cc3ccccc3)C(=O)O[C@@H]12`
Ans. -0.928

Qu. Hello, please tell me recorded z-score for this one: `COC(=O)[C@@]1(Cc2ccc(OC)cc2)[C@H]2c3cc(C(=O)N4CCCC4)n(CCc4ccc(OC)c(Br)c4)c3C[C@H]2CN1C(=O)c1ccccc1`
Ans. 2.24

Qu. Hello, please tell me recorded z-score for this one: `COCCOC(=O)N1C(=O)[C@@]2(c3ccccc31)[C@H](C(N)=O)[C@H]1C(=O)O[C@H](c3ccccc3)[C@H](c3ccccc3)N1[C@@H]2c1ccc(OCCO)cc1`
Ans. -0.914

Qu. Hello, please tell me recorded z-score for this one: `COc1ccc([Si](C)(C)[C@H]2[C@H](CCn3cc([C@H](O)c4ccccc4)nn3)O[C@@]3(C(=O)N(C)c4c(Br)cc(C)cc43)[C@@H]2C)cc1`
Ans. -0.281
